- Tested on: MS2 coat protein
- procedure.text: apparent Kd, MS2 coat protein; higher = weaker binding; RNA-MaP array
- cond: designed as: OFF switch for flavin mononucleotide; no ligand
readout: apparent Kd (nM)
Answer with a number only, understood to be in nM.

Sample `CCAGCGAGUUAGACCUUACAUGAGGAUCACCCAUGUUGGCGUAGAAGGACGCUCAUAAGCACUGCGUAGGAUAUACUCACCAAU` ; apparent Kd observed: 7.99

Sample `GUUACAUGAGGAUCACCCAUGUGGGCUGUAUGUAGCGCACCUGAGGAUAUGGCCCGGAGGUAGGACCAGAAGGCAGCGAAGAGC` ; apparent Kd observed: 65.4

Sample `GAGCUAUCAGGAUAUACAUGAGGAUCACCCAUGUUUUUUGGAAUCAAGAGGAAUCAAUGUAGAAGGGAUCUCGA` ; apparent Kd observed: 21.8

Sample `CGUAUGGGUGUCAGGAUAUGCGGGACGCUGUUACUGCAGAAGGGACAUGAGGAUCACCCAUGUAGUUCCAGACC` ; apparent Kd observed: 18.4

Sample `GAAAAUACAUGAGGAUCACCCAUGUGGUGGCGUCAGAUUGGUUAGGAUAUCUUGGCGGGAUACUGAGAGAAGGAACUUUGAAGG` ; apparent Kd observed: 181

Sample `UCCUAGCGACAGAAGGUAGGCAAGAGACGCCCUCAACGACAUGAGGAUCACCCAUGUGGGACCACUAAGGAUAUGUAUGCCGAC` ; apparent Kd observed: 84.6

Sample `AUGUAACAUGAGGAUCACCCAUGUAAGGAUAUGCAACAAAACUCUGAAUCGUAAGUUCGCAGAAGGUACAUUAG` ; apparent Kd observed: 28.4

Sample `UCGAACUAACAAGGAUAUACGCGGGUCGAAACGGUAGAAGGUGUCAACGGUAUCUCACAUGAGGAUCACCCAUGUCGGCAGGGA` ; apparent Kd observed: 135
